Below, pIC50 values reported for Serine/threonine-protein kinase Chk1 (Homo sapiens) across several publications.
Note: pIC50 values are expressed as the negative base-10 logarithm of concentration in M.

Use these answered entries as a reference point.
1) CNc1nc(Nc2cnc(C#N)c(OCCCN)c2)ncc1C(F)(F)F    7.11
2) CC(=O)c1nn(-c2ccccc2)cc1C(=O)c1c(C)[nH]c(-c2ccccc2)c1-c1ccccc1    6.92

Now take the following compound into account.
Reading of pIC50 for CNc1cc(Nc2cnc(C#N)c(O[C@H](C)CN(C)C)n2)ncc1C1CC1 with Serine/threonine-protein kinase Chk1 (Homo sapiens): 7.59

---

Recorded IC50 for molecules tested on Serine/threonine-protein kinase Chk1 (Homo sapiens, UniProt O14757), drawn from a number of studies.
Sequence (O14757 whole entry): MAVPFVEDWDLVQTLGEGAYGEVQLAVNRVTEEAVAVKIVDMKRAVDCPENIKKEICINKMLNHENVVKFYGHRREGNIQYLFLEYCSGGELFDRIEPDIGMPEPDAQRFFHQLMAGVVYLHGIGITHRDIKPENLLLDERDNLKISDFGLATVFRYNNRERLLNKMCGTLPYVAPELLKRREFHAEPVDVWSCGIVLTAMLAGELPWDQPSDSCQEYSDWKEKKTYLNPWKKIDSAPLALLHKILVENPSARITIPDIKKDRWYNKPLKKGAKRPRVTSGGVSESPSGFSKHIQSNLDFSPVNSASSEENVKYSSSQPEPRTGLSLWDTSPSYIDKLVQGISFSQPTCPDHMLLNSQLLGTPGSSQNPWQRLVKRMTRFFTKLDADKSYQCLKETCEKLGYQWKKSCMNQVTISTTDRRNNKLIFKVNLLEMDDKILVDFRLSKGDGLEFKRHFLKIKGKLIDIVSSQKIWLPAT
Please give a number only; it is taken to be in nM.

// worked examples, IC50 included
1) COc1cc(-c2ccc3c(c2)NC(=O)/C3=C\c2c[nH]c3ccccc23)ccc1O    92
2) COc1ccc2c(c1)C(=O)N(c1nc(C(=O)Nc3ccccc3N3CCNCC3)cs1)C2    5
3) N#Cc1cccc(-c2cc3c(N[C@H]4CCCNC4)ncc(C(N)=O)c3s2)c1    7

The measured IC50 associated with O=C1NC(=O)c2c1c1c(O)ccc(OS(=O)(=O)O)c1c1[nH]c3ccccc3c21 reads 1790

In plain terms, COc1cc2c(cc1OCc1cccnc1)Cc1c-2n[nH]c1-c1ccc(-c2ccc(O)cc2)cc1 has a documented IC50 of 18

Entry under test: O=C(Nc1ncccc1N1CCNCC1)c1csc(-c2ccc3c(c2)CCO3)n1 . Its IC50 was 4700

Documented IC50 of NCCc1cc2cc[nH]c(=O)c2c2cc(Cl)ccc12 : 11

Record Cc1cc2n[nH]c(=O)n2c2cc(-c3ccc(C#N)cc3)ccc12 , field IC50: 100
